Assay: Tissue distribution of radiotracer in rats
Type: in vivo, male Wistar rats
Details: rat, brain; 180 min, iv; read-out: Tissue distribution, brain
metric name: tissue uptake at 3 h (%ID/g)

                                   compound  endpoint_value
0  O[C@@H]1CCN(Cc2cccc([125I])c2)C[C@H]1N1CCC(c2ccccc2)CC1 (single isomer, unassigned) [(-)-[^125 I]12h]            0.92

---

Experiment: Tissue distribution of radiotracer in rats
Assay type: in vivo, male Wistar rats
Details: rat, gonads; 30 min, iv; read-out: Tissue distribution, gonads
metric name: tissue uptake at 0.5 h (%ID/g)

In [3]: df
Out[3]:
                                   compound  endpoint_value
0  O[C@@H]1CCN(Cc2cccc([125I])c2)C[C@H]1N1CCC(c2ccccc2)CC1 (single isomer, unassigned) [(-)-[^125 I]12h]            0.23

Hello, the source for this data is patent US5876694A, in case you need it.
